- Tested on: Saccharomyces cerevisiae
- RUN DESCRIPTION: protein stability index of tFT-peptide fusion (C-terminal peptide) (PSI (0-1 scale)); higher = more stable (slower turnover)
- RUN CONDITIONS: genetic background: wild type; temperature: 30 C
Classification field: enter MET for protein stability index values not below 0.7, NOT MET for values below it.

BIOSEQUENCE	TESTED TARGET	GROUP
YSDTIWNVEPVT [GPH1 C-terminal 12 aa]	Saccharomyces cerevisiae	MET
EYSKKYLTTFFQ [YEA6 C-terminal 12 aa]	Saccharomyces cerevisiae	MET
ATLINILLELFS [ECM27 C-terminal 12 aa]	Saccharomyces cerevisiae	NOT MET

// query Does protein stability index meet or surpass 0.7 for DDFKKAFREKRK [ALY1 C-terminal 12 aa] ?
// result NOT MET

// query Does protein stability index meet or surpass 0.7 for LPIWDPMGALAK [LAP3 C-terminal 12 aa] ?
// result MET

// query Does protein stability index meet or surpass 0.7 for RKFSSSTNLAKF [TOS8 C-terminal 12 aa] ?
// result MET

---

- Test system: Saccharomyces cerevisiae
- RUN DESCRIPTION: protein stability index of tFT-peptide fusion (C-terminal peptide) (PSI (0-1 scale)); higher = more stable (slower turnover)
- RUN CONDITIONS: genetic background: wild type; temperature: 30 C
Examples of sequences with documented protein stability index follow.
Give the value as a plain number.

GYLNWIDTRTSE 0.79
LSFFPPPLPPSS 0.71
HYPGSGAVEQHE 0.599
PSLLFILPSPLP 0.689

// query Tell me the measured protein stability index of `KAGGGEGRDAWG` , please.
// result 0.667

// query Tell me the measured protein stability index of `PVPADGPSPPQP` , please.
// result 0.721

// query Tell me the measured protein stability index of `PPPRPPPASPVP` , please.
// result 0.708

// query Tell me the measured protein stability index of `RPPSLVFLFLLT` , please.
// result 0.441

// query Tell me the measured protein stability index of `GSNKWATANKYG` , please.
// result 0.656

---

- Tested on: Saccharomyces cerevisiae
- RUN DESCRIPTION: protein stability index of tFT-peptide fusion (C-terminal peptide) (PSI (0-1 scale)); higher = more stable (slower turnover)
- RUN CONDITIONS: genetic background: wild type; temperature: 30 C
READOUT KIND: protein stability index
Give the value as a plain number.

Would you please look over these solved cases?
BIOSEQUENCE	protein stability index
RTLTTGNYHGLA [SYP1 C-terminal 12 aa]	0.678
FGQDGCLYIYNQ [YHR045W C-terminal 12 aa]	0.698
KKARKMPTWVKR [MRPS9 C-terminal 12 aa]	0.658
VAKAEKLAAEAN [ATP2 C-terminal 12 aa]	0.705
KRAENNAQKKTN [ERG25 C-terminal 12 aa]	0.495

// query Tell me the measured protein stability index of VYARDAAALRPV [SCS3 C-terminal 12 aa] , please.
// result 0.686

// query Tell me the measured protein stability index of AYQIRQEVLQSL [SGA1 C-terminal 12 aa] , please.
// result 0.672

// query Tell me the measured protein stability index of VFPDVLFTFLFS [YEL010W C-terminal 12 aa] , please.
// result 0.713

// query Tell me the measured protein stability index of LLHTVMNENKLP [LST7 C-terminal 12 aa] , please.
// result 0.687

// query Tell me the measured protein stability index of KPMAYSNGGFGL [PPT1 C-terminal 12 aa] , please.
// result 0.668

// query Tell me the measured protein stability index of IYYKSQNWRREC [YBR219C C-terminal 12 aa] , please.
// result 0.169

---

- System: Saccharomyces cerevisiae
- RUN DESCRIPTION: protein stability index of tFT-peptide fusion (C-terminal peptide) (PSI (0-1 scale)); higher = more stable (slower turnover)
- RUN CONDITIONS: genetic background: das1 deletion; temperature: 37 C
Classification field: enter condition met for protein stability index values not below 0.5, condition not met for values below it.

LKTKKKKTNTQK condition met
FLSRVVLVVLLV condition not met
VRFGYGRIVWDI condition met
AFFGIYLICFIV condition not met
WLFFVVLPVKAF condition not met
LFVSLSFVVFLP condition not met
NNQIQKKMYQTN condition met
IYTLIINKSKAQ condition met

// query Does protein stability index meet or surpass 0.5 for `RRMGLRLFLLWM` ?
// result condition met

// query Does protein stability index meet or surpass 0.5 for `FFMLWCRVLLRL` ?
// result condition not met

// query Does protein stability index meet or surpass 0.5 for `PALVVALLASVL` ?
// result condition met

// query Does protein stability index meet or surpass 0.5 for `SVSQTSILDSRL` ?
// result condition met

// query Does protein stability index meet or surpass 0.5 for `VRRFNVLLYVRG` ?
// result condition met

---

- Test system: Saccharomyces cerevisiae
- RUN DESCRIPTION: protein stability index of tFT-peptide fusion (C-terminal peptide) (PSI (0-1 scale)); higher = more stable (slower turnover)
- RUN CONDITIONS: genetic background: das1 deletion; temperature: 30 C
READOUT KIND: protein stability index
Give the value as a plain number.

// query Tell me the measured protein stability index of KFDKPLYERLET [YNR014W C-terminal 12 aa] , please.
// result 0.685

// query Tell me the measured protein stability index of NDLITYLKKACE [CYC1 C-terminal 12 aa] , please.
// result 0.68

// query Tell me the measured protein stability index of CYTEEEWSKIVV [BOL2 C-terminal 12 aa] , please.
// result 0.707

// query Tell me the measured protein stability index of RRNRGTPVKYTR [DOT1 C-terminal 12 aa] , please.
// result 0.697

// query Tell me the measured protein stability index of LEEETLPPSQKK [PYC2 C-terminal 12 aa] , please.
// result 0.694

// query Tell me the measured protein stability index of TKGGNAGTKAYN [RTC3 C-terminal 12 aa] , please.
// result 0.679

---

- Tested on: Saccharomyces cerevisiae
- RUN DESCRIPTION: protein stability index of tFT-peptide fusion (C-terminal peptide) (PSI (0-1 scale)); higher = more stable (slower turnover)
- RUN CONDITIONS: genetic background: wild type; temperature: 30 C
Classification field: enter 1 (yes) for protein stability index values not below 0.7, 0 (no) for values below it.

// query Does protein stability index meet or surpass 0.7 for `QPTPQSALAKHQ` ?
// result 0 (no)

// query Does protein stability index meet or surpass 0.7 for `SGSCPSSTSATT` ?
// result 1 (yes)

---

Examples of sequences with documented protein stability index follow.
- Tested on: Saccharomyces cerevisiae
- RUN DESCRIPTION: protein stability index of tFT-peptide fusion (C-terminal peptide) (PSI (0-1 scale)); higher = more stable (slower turnover)
- RUN CONDITIONS: genetic background: wild type; temperature: 30 C
Give the value as a plain number.

Would you please look over these solved cases?
RLSGRRLVNYRP 0.641
GLSLFPVTFFLR 0.585
EQTIGDRVPGKG 0.658
LWSSRPGFDDVW 0.643

// query Tell me the measured protein stability index of `PPPPPPPPPPSL` , please.
// result 0.746

// query Tell me the measured protein stability index of `FLYSVLLICKFI` , please.
// result 0.135

// query Tell me the measured protein stability index of `PSSRSASSSSPA` , please.
// result 0.705

// query Tell me the measured protein stability index of `RLGGGGVGGAGV` , please.
// result 0.699

// query Tell me the measured protein stability index of `SLCELRCLLRVG` , please.
// result 0.473

// query Tell me the measured protein stability index of `PTFRSRPFPPHP` , please.
// result 0.703

// query Tell me the measured protein stability index of `GGGGGGVEPCFV` , please.
// result 0.668

// query Tell me the measured protein stability index of `RIIKIRAISINL` , please.
// result 0.501

// query Tell me the measured protein stability index of `IQIGESLYFWFV` , please.
// result 0.654

// query Tell me the measured protein stability index of `SPWMSKNGQSSD` , please.
// result 0.622

// query Tell me the measured protein stability index of `PPSRLYFLSPRS` , please.
// result 0.746

// query Tell me the measured protein stability index of `PPTLHVSPLCPL` , please.
// result 0.607

// query Tell me the measured protein stability index of `SSLAKFQLISTY` , please.
// result 0.394

// query Tell me the measured protein stability index of `PSPPPPAPRPPP` , please.
// result 0.657

// query Tell me the measured protein stability index of `PPLPPSSPRSLL` , please.
// result 0.701

// query Tell me the measured protein stability index of `TQKESEKLNMSK` , please.
// result 0.667

// query Tell me the measured protein stability index of `PPPPPPPRPDPP` , please.
// result 0.557

// query Tell me the measured protein stability index of `EVYPAEADVFGG` , please.
// result 0.69
